- Measured on: FAAH (Homo sapiens)
- Sequence (O00519 1-579): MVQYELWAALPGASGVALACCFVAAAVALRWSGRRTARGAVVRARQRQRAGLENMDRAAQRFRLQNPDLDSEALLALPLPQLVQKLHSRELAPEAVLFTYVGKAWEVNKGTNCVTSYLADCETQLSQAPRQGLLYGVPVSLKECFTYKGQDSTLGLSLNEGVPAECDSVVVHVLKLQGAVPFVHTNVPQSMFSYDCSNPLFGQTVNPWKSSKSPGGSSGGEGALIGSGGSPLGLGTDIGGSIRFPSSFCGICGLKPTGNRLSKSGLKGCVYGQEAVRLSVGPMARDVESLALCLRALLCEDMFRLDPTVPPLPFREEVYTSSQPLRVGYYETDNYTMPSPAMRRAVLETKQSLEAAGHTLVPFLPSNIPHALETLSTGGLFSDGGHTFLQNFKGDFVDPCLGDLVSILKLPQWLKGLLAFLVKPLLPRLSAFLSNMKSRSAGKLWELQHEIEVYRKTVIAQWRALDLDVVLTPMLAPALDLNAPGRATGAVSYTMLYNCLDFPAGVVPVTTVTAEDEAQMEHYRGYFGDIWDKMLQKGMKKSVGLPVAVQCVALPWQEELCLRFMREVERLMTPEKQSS
- Experiment description: Screening for an FAAH activity-inhibiting substance with human bladder epithelial cancer-derived cell line 5637 cells (IC50)
- Setup conditions: FAAH activity in human bladder epithelial cancer-derived 5637 cells, 37° C., 30 minutes
Measure name: pIC50
The value called pIC50 is obtained by taking minus log10 of the concentration in mol/L.

CN(CCC1CCCCC1)c1ccc(C(=O)N2CCN(C(=O)Nc3cccnc3)CC2)cc1 [Example 334]
9.74
O=C(Nc1cccnc1)N1CCN(C(=O)c2cccc(OCC3CCCCC3)c2)CC1 [Example 320]
9.62
O=C(Nc1cnccn1)N1CCN(C(=O)c2cccc(OCCC3CCCCC3)c2)CC1 [Example 210]
9.80
O=C(Nc1ccc(-n2cccn2)nc1)N1CCN(C(=O)c2cccc(OCCC3CCCCC3)c2)CC1 [Example 156]
9.48
O=C(Nc1cccnc1)N1CCN(Cc2cccc(OCCC3CCCCC3)c2)CC1 [Example 388]
10.10
CN(Cc1cccc(F)c1)c1ccc(C(=O)N2CCN(C(=O)Nc3cccnc3)CC2)cc1 [Example 322]
9.27

What does the record list as pIC50 for O=C(N1CCC(Oc2ccc(OCc3cccc(F)c3)cc2)CC1)n1ccnc1 [Example 12] ? 10.22

I'd like to know its pIC50. The molecule in question is O=C(Nc1cccnc1)N1CCN(C(=O)c2cccc(OCCc3ccccc3)c2)CC1 [Example 426] 9.92

====

- Measured on: FAAH (Homo sapiens)
- Experiment description: Screening for an FAAH activity-inhibiting substance with human bladder epithelial cancer-derived cell line 5637 cells (IC50)
- Setup conditions: FAAH activity in human bladder epithelial cancer-derived 5637 cells, 37° C., 30 minutes
IC50 strictly under 0.4 nM means class 1; at 0.4 nM or over means class 0.

The examples below pair each entry with its known result.
O=C(c1ccc(OCCC2CCCCC2)cc1)C1CCN(C(=O)Nc2cccnc2)CC1
class 0
O=C(Nc1ncccn1)N1CCN(C(=O)c2cccc(OCCC3CCCCC3)c2)CC1
class 0
O=C(c1ccc(OCc2cccc(F)c2)cc1)C1CCN(C(=O)Nc2cccnc2)CC1
class 0

Quick check: does O=C(Nc1nccnc1Cl)N1CCC(Oc2cccc(OCCC3CCCCC3)c2)CC1 have IC50 under 0.4 nM? class 0

Dear reviewer, please state whether O=C(Nc1cnccn1)N1CCN(C(=O)c2ccnc(OCCC3CCCCC3)c2)CC1 has IC50 strictly beneath 0.4 nM. class 0

Does CCCCCCOc1ccc(C(=O)N2CCN(C(=O)Nc3cccnc3)CC2)cc1 have IC50 strictly under 0.4 nM? class 0

Threshold test, IC50 < 0.4 nM: Nc1ccnn1C(=O)N1CCN(C(=O)c2cccc(OCCC3CCCCC3)c2)CC1 class 1

Input O=C(Cc1ccc(OCc2cccc(F)c2)cc1)N1CCN(C(=O)Nc2cccnc2)CC1 ; condition: IC50 strictly below 0.4 nM. Does it hold? class 1
